SYSTEM: Protein deacetylase HDAC6 (Homo sapiens, UniProt Q9UBN7)
Sequence (Q9UBN7 whole entry): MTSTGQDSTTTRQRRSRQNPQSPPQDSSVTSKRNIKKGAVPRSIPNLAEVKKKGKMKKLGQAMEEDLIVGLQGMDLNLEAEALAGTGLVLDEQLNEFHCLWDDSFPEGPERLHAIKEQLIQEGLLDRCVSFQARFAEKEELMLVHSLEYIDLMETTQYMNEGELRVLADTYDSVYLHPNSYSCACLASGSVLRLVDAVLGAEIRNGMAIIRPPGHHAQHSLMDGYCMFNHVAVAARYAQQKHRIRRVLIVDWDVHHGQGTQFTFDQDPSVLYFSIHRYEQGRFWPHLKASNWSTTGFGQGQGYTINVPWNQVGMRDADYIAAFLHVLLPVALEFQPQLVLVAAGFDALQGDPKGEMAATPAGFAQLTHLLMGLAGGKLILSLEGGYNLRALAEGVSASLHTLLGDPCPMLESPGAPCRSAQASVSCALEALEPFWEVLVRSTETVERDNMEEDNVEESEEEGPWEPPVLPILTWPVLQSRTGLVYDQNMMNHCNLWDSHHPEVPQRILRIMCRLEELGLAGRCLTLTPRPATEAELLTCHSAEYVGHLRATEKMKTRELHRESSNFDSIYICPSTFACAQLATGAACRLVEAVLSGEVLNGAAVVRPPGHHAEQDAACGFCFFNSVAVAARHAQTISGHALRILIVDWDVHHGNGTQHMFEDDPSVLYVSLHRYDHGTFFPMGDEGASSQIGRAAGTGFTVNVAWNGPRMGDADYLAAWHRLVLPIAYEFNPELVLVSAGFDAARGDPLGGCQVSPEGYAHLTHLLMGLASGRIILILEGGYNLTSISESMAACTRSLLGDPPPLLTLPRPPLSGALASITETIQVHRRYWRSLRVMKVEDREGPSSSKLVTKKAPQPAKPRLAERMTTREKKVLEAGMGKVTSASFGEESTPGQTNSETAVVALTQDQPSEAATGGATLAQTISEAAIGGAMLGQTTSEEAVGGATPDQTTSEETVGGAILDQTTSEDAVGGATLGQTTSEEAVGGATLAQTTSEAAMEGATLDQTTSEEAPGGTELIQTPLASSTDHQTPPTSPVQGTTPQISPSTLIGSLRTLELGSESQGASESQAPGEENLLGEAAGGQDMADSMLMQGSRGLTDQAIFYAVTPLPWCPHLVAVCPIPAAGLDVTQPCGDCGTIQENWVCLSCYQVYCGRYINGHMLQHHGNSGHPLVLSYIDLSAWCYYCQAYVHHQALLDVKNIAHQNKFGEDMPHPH
Consider the following IC50 data for Protein deacetylase HDAC6 (Homo sapiens, UniProt Q9UBN7), collected from several reports.
ATTRIBUTE_MEASURED: IC50 (nM)

These recorded examples may help you get a feel for the data.
{"COMPOUND": "Nc1nc(N2CCN(CCc3ccc(C(=O)NO)cc3)CC2)nc2nc(-c3ccco3)nn12", "SYSTEM": "Protein deacetylase HDAC6 (Homo sapiens, UniProt Q9UBN7)", "IC50 [nM]": 19}
{"COMPOUND": "O=C(NO)c1ccc(CN2C(=O)C(Cc3ccccc3)N(Cc3ccccc3)C2=O)cc1 (racemic)", "SYSTEM": "Protein deacetylase HDAC6 (Homo sapiens, UniProt Q9UBN7)", "IC50 [nM]": 21.3}
{"COMPOUND": "O=C(NO)c1ccc(Cn2cc(-c3cccc(CO)c3)nc(N3CCOCC3)c2=O)cc1", "SYSTEM": "Protein deacetylase HDAC6 (Homo sapiens, UniProt Q9UBN7)", "IC50 [nM]": 14}

P: O=C(NO)c1ccc(CN2CCC3(CC2)CN(C(=O)c2ccccc2)c2c(-c4ccccc4)cccc23)cc1
Q: O=C(O)c1ccc(-c2ccc(C(=O)C(F)(F)F)s2)cc1
Exercise: Pick the one with the larger IC50: P vs Q Choose, then provide that item's label.
Key: P
(P: 465 nM, Q: 27 nM)

a: Cc1ccc(OCCN(Cc2ccc(-c3ccccc3)cc2)Cc2ccc(/C=C/C(=O)NO)o2)cc1
b: CC1(Nc2ccc(C(=O)NO)cc2)CCN(c2ccc(Cl)cc2)C1=O (centres undefined)
Exercise: Response body: label of entry with the larger IC50; valid values a , b . Could you answer with the label of the item you picked?
Key: a
(a: 1140 nM, b: 21 nM)

* * *

Collected literature values of IC50 measured for UniProt:Q9UBN7.
ATTRIBUTE_MEASURED: IC50 (µM)

{"STRUCTURE_SMILES_STRING": "O=C(CCCCCCC(=O)Nc1nc(-c2cccc([N+](=O)[O-])c2)cs1)NO", "IC50 / µM": 0.0037}
{"STRUCTURE_SMILES_STRING": "COc1cc2nc(-c3ccc(C)o3)cc(N[C@H]3CC[C@@H](C(=O)NO)CC3)c2cc1OC", "IC50 / µM": 2.89}
{"STRUCTURE_SMILES_STRING": "O=C(NO)c1ccc(CN2CC3(CCOC3)C2)c(F)c1", "IC50 / µM": 0.001}
{"STRUCTURE_SMILES_STRING": "O=C(NO)c1ccc(Cn2cc(-c3cncnc3)nc(N3CCOCC3)c2=O)cc1", "IC50 / µM": 0.035}

1: O=C(CCCCNC(=O)c1cc(-c2ccccc2)on1)NO
2: O=C1CC[C@@H](C(=O)N[C@@H](CCCCCS)C(=O)Nc2ccccc2)N1
Exercise: // returns 1 or 2 , whichever has the lower IC50 // caller expects the label of the chosen entry
Key: 2
(2: 0.001 µM, 1: 0.0619 µM)

* * *

Assay read-out IC50 on Protein deacetylase HDAC6 (Homo sapiens, UniProt Q9UBN7); records merged from the literature.
SYSTEM: Protein deacetylase HDAC6 (Homo sapiens, UniProt Q9UBN7)
Sequence (Q9UBN7 whole entry): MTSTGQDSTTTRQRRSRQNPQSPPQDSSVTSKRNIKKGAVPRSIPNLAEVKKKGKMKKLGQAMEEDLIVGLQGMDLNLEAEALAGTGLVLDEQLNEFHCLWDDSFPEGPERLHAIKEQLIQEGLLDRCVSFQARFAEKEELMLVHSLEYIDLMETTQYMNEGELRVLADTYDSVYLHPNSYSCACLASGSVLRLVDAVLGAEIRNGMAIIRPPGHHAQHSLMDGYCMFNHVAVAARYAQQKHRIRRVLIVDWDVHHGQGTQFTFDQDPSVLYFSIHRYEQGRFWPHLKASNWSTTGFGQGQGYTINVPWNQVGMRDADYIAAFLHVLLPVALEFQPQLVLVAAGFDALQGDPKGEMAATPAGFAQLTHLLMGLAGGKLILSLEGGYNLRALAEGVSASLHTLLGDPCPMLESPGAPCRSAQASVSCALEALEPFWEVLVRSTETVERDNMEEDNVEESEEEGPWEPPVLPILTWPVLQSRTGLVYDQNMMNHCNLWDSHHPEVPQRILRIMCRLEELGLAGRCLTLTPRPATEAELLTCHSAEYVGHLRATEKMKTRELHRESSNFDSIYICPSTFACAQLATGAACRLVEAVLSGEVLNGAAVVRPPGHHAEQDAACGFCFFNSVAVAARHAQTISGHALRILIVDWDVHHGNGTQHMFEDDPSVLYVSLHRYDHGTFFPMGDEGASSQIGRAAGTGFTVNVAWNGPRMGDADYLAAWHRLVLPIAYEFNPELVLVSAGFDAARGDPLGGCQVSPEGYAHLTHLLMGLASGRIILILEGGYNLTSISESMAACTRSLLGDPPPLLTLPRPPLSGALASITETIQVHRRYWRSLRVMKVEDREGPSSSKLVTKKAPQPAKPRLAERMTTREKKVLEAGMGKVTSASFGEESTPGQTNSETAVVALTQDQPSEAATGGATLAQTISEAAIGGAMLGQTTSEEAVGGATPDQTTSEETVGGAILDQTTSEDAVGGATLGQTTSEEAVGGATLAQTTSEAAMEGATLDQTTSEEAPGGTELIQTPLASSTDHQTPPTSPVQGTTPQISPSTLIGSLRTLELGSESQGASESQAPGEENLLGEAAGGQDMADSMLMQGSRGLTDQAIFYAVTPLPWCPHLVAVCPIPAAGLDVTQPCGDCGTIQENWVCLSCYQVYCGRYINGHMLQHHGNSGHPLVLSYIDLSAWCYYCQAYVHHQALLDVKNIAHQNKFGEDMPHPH
ATTRIBUTE_MEASURED: IC50 (nM)

Here are 2 compounds together with their reported answers.
{"STRUCTURE_SMILES_STRING": "O=C(/C=C/c1ccc(CCCCCCc2n[nH]c(=O)c3cc(F)ccc23)cc1)NO", "OUTPUT_UNIT": "nM", "OBSERVED_MEASUREMENT": 57}
{"STRUCTURE_SMILES_STRING": "COc1cccc(-c2ccc(C(=O)C(F)(F)F)s2)c1", "OUTPUT_UNIT": "nM", "OBSERVED_MEASUREMENT": 3100}

I: COc1cc2nc(N3CCCCC3)cc(NCC3CCN(c4ncc(C(=O)NO)cn4)CC3)c2cc1OC
II: O=C1CN(Cc2ccc(C(=O)NO)cc2)C(=O)[C@@H](Cc2ccccc2)N1
Exercise: When their IC50 values are compared, which is larger, I or II ? Bench note: the answer is the label of the chosen record.
Key: I
(I: 234 nM, II: 8.62 nM)
